Data provenance is patent US12404304B1.

System: viable cells in culture
Experiment: Cell viability assay (CellTiter-Glo Luminescent Cell Viability Assay, ATP quantitation, percent of vehicle control)
Just a reminder that ties go to -1: only Average Cell Viability after 24 Hours (% DMSO) strictly below 70 % DMSO counts as 1.

# count of solved cases: 5
INSERT INTO assay_data (molecule, experimental_system, assigned_category) VALUES
  ('CC(=O)c1ccc(NC(=S)Nc2ccc(Br)c(Cl)c2)cc1 [compound 1439]', 'viable cells in culture', 1),
  ('CCN1CCN(Cc2ccc3cccnc3c2O)CC1 [compound 1089]', 'viable cells in culture', -1),
  ('O=C(NC1CCCC1)c1cc(-c2cccs2)on1 [compound 1184]', 'viable cells in culture', -1),
  ('CCC(C)NS(=O)(=O)c1ccc(NC(=O)CN2C(=O)c3ccccc3C2=O)cc1 (stereo not shown) [compound 1431]', 'viable cells in culture', -1),
  ('O=C(COc1ccccc1)Nc1ccc(C(=O)NCC2COc3ccccc3O2)cc1 (stereo not shown) [compound 1553]', 'viable cells in culture', -1);

# input Report whether reported Average Cell Viability after 24 Hours (% DMSO) is lower than 70 % DMSO (strictly) for Oc1c(C(Nc2ccccc2Cl)c2ccccn2)ccc2cccnc12 (stereo not shown) [compound 1095]
# output 1

---

Tested on: viable cells in culture
Experiment: Cell viability assay (CellTiter-Glo Luminescent Cell Viability Assay, ATP quantitation, percent of vehicle control)
The following compounds are listed with their measured Average Cell Viability after 24 Hours (% DMSO) values.

Worked examples follow.
INSERT INTO measurements (compound, experimental_system, test_result) VALUES
  ('CCOC(=O)c1nn(-c2ccc(Cl)cc2)c(=O)c2c(NC(=O)c3ccc(F)cc3)scc12', 'viable cells in culture', '62.52 % DMSO'),
  ('COC(=O)CSc1nnc(NC(=O)c2ccc(Cl)cc2)s1', 'viable cells in culture', '70.75 % DMSO'),
  ('O=C(Nc1nc(-c2ccccn2)cs1)c1cccc(S(=O)(=O)N2CCCCC2)c1', 'viable cells in culture', '73.06 % DMSO'),
  ('CCCN1C(C(=O)c2ccccc2)=C(OC(=O)CC)c2ccccc2S1(=O)=O', 'viable cells in culture', '69.85 % DMSO'),
  ('C=CCN1C(C(=O)c2ccccc2)=C(OC(=O)c2ccc(Cl)cc2)c2ccccc2S1(=O)=O', 'viable cells in culture', '91.26 % DMSO'),
  ('COc1ccc(C2=NN(c3nc4ccccc4s3)C(=O)C2)cc1', 'viable cells in culture', '98.68 % DMSO');

# input # get_value(readout='Average Cell Viability after 24 Hours (% DMSO)', item= Cc1ccc(C)c(OCC(=O)Nc2cc(Cl)c(Cl)cc2Cl)c1 )
# output 106.51 % DMSO

# input Next up: Cc1ccc(N2CC(C(=O)N3CC(C)CC(C)C3)CC2=O)c(C)c1 (stereo not drawn)
# output 104.57 % DMSO

# input Next up: COC(=O)c1sc(NC(=S)NCc2cccnc2)c(C(=O)OC)c1C
# output 99.11 % DMSO

# input Next up: Cc1ccnc(NC(c2cccc([N+](=O)[O-])c2)c2ccc3ccc(C)nc3c2O)c1 (stereo not drawn)
# output 65.08 % DMSO

---

Test system: viable cells in culture
Assay: Cell viability assay (CellTiter-Glo Luminescent Cell Viability Assay, ATP quantitation, percent of vehicle control)
The following molecules are listed with their measured Average Cell Viability after 24 Hours (% DMSO) values.

Worked examples follow.
INSERT INTO measurements (molecule, test_result) VALUES
  ('CC(C)CCNC(=O)c1cc(-c2cccs2)on1', '75.76 % DMSO'),
  ('COc1ccc(C(NC(C)=O)c2ccc3cccnc3c2O)cc1OC (stereo not drawn)', '75.33 % DMSO'),
  ('O=C(N/N=C/c1ccccn1)c1ccccc1', '81.94 % DMSO'),
  ('Cc1nn2c(=O)cc(-c3ccccc3Cl)[nH]c2c1-c1ccccc1', '71.68 % DMSO');

# input Under viable cells in culture: Average Cell Viability after 24 Hours (% DMSO) value of COCc1cc(CN2CCCCC2)c(O)c2ncccc12 ?
# output 68.58 % DMSO

# input Next up: Cc1cccnc1Nc1nc(-c2ccccn2)cs1
# output 95.66 % DMSO

# input Next up: COc1ccc(CCNC(=O)c2cc(-c3cccs3)on2)cc1
# output 110.08 % DMSO

# input Next up: Cc1cc(OCC(=O)Nc2ccc(S(=O)(=O)Nc3nccs3)cc2)ccc1C(C)C
# output 88.25 % DMSO

# input Next up: CCOc1cc(C(NC(C)=O)c2cc([N+](=O)[O-])c3cccnc3c2O)ccc1O (stereo not drawn)
# output 84.43 % DMSO

---

The following compounds are listed with their measured Average Cell Viability after 24 Hours (% DMSO) values.
Test system: viable cells in culture
Assay: Cell viability assay (CellTiter-Glo Luminescent Cell Viability Assay, ATP quantitation, percent of vehicle control)
Include the unit right after the number.

# input # get_value(readout='Average Cell Viability after 24 Hours (% DMSO)', item= O=C(NCCc1ccccc1)c1ccc(NC(=O)C2(c3ccccc3)CCCC2)cc1 )
# output 92.20 % DMSO

# input Next up: O=C(Nc1nc(-c2ccccn2)cs1)c1ccc(Br)s1
# output 56.61 % DMSO

# input Next up: COC(=O)COc1ccc(S(=O)(=O)N2CCCC2)cc1Cl
# output 79.26 % DMSO

# input Next up: FC(F)(F)c1cccc(NC(=S)Nc2ccc(Cc3ccncc3)cc2)c1
# output 53.58 % DMSO

# input Next up: Cc1nn2c(=O)cc(-c3ccc(Cl)cc3)[nH]c2c1-c1ccccc1
# output 61.07 % DMSO

---

Tested on: viable cells in culture
Assay: Cell viability assay (CellTiter-Glo Luminescent Cell Viability Assay, ATP quantitation, percent of vehicle control)
Just a reminder that ties go to label 0: only Average Cell Viability after 24 Hours (% DMSO) strictly below 70 % DMSO counts as label 1.

# count of solved cases: 8
INSERT INTO measurements (compound, experimental_system, assigned_category) VALUES
  ('CCCc1nnc(NC(=O)CSc2nnc(-c3cccs3)o2)s1', 'viable cells in culture', 'label 0'),
  ('Oc1c2c(nn1-c1nc3ccccc3s1)CCCC2', 'viable cells in culture', 'label 0'),
  ('Cc1cccc(Nc2nc3nonc3nc2Nc2ccc(F)cc2)c1C', 'viable cells in culture', 'label 1'),
  ('Clc1cccc(CSc2ccc(-c3ccccn3)nn2)c1', 'viable cells in culture', 'label 1'),
  ('Oc1cc(-c2ccc(Cl)cc2)nn1-c1nc2ccccc2[nH]1', 'viable cells in culture', 'label 1'),
  ('CC(C)c1cccc(C(C)C)c1NC(=O)c1ccc(OCC(=O)OC2CCCCC2)cc1', 'viable cells in culture', 'label 0'),
  ('Cc1nn(-c2nc3ccccc3[nH]2)c(O)c1Cc1ccccc1Cl', 'viable cells in culture', 'label 1'),
  ('Cc1cccc(NC(=O)CSc2nnc(CNC(=O)c3ccc(Br)cc3)n2C)c1', 'viable cells in culture', 'label 0');

Okay, now this compound:
# input Report whether reported Average Cell Viability after 24 Hours (% DMSO) is lower than 70 % DMSO (strictly) for COc1ccc(C2CC(=O)C3=C(C2)Nc2ccccc2N(C(=O)CCC(=O)O)C3c2cccnc2)cc1OC (stereo not drawn)
# output label 0

---

Tested on: viable cells in culture
Assay: Cell viability assay (CellTiter-Glo Luminescent Cell Viability Assay, ATP quantitation, percent of vehicle control)
quantity: Average Cell Viability after 24 Hours (% DMSO)

Worked examples follow.
INSERT INTO results (molecule, test_result) VALUES
  ('CCCCC(=O)NC(c1ccc(OC)cc1)c1cc([N+](=O)[O-])c2cccnc2c1O (stereo not drawn) [compound 1040]', '61.11 % DMSO'),
  ('CCCC(=O)NC(c1ccc(O)c(OCC)c1)c1cc([N+](=O)[O-])c2cccnc2c1O (stereo not drawn) [compound 1036]', '73.28 % DMSO'),
  ('Cc1ccc(S(=O)(=O)Nc2ccc(O)c3ncccc23)cc1 [compound 1091]', '94.30 % DMSO'),
  ('O=C(CSc1nc2ccccc2c(=O)n1-c1ccc(Cl)cc1)Nc1cccc(Cl)c1 [compound 1401]', '96.20 % DMSO'),
  ('CC(C)(C)C(=O)Nc1nc2c(Cl)c(Cl)ccc2s1 [compound 1446]', '65.61 % DMSO');

# input # get_value(readout='Average Cell Viability after 24 Hours (% DMSO)', item= COC(=O)C1=C(C)Nc2nnnn2C1c1ccccc1OC (stereo not drawn) [compound 1321] )
# output 124.73 % DMSO

# input Next up: CCC(=O)NC(c1ccccc1Cl)c1cc([N+](=O)[O-])c2cccnc2c1O (stereo not drawn) [compound 1074]
# output 75.55 % DMSO

# input Next up: c1ccc(-c2c(-c3ccccc3)n(Cc3ccco3)c3ncn4nc(-c5ccncc5)nc4c23)cc1 [compound 1304]
# output 89.74 % DMSO

# input Next up: CC(=O)NC(c1ccc(Cl)cc1)c1cc([N+](=O)[O-])c2cccnc2c1O (stereo not drawn) [compound 1037]
# output 67.96 % DMSO

# input Next up: CN1CCN(Cc2cc(COCc3ccccc3)c3cccnc3c2O)CC1 [compound 1003]
# output 73.53 % DMSO

# input Next up: COc1ccc(OC)c(N(C(=O)Cc2ccccc2)c2nc(-c3ccc(C)cc3)c(C)s2)c1 [compound 1416]
# output 95.26 % DMSO

# input Next up: CN(C)CCCCNC(=O)c1cc(-c2cccs2)on1 [compound 1515]
# output 96.89 % DMSO
